- System: T. evansi (AnTat 3/3)
- assay_info: resazurin drug sensitivity assay, T. evansi
- Assay type: cell-based, Trypanosoma evansi
- reported_conditions: Trypanosoma evansi, b = EC50 of control for 5, 6, 7
observed_property: EC50
Answer by giving the amount and then stating its unit.

The reported EC50 of the molecule N=C(N)c1ccc(OCCCCCOc2ccc(C(=N)N)cc2)cc1 [PMD, pentamidine isethionate, reference compound] was 2.5 nM
